Biological target: UniProt Q63634
Sequence (Q63634 whole entry): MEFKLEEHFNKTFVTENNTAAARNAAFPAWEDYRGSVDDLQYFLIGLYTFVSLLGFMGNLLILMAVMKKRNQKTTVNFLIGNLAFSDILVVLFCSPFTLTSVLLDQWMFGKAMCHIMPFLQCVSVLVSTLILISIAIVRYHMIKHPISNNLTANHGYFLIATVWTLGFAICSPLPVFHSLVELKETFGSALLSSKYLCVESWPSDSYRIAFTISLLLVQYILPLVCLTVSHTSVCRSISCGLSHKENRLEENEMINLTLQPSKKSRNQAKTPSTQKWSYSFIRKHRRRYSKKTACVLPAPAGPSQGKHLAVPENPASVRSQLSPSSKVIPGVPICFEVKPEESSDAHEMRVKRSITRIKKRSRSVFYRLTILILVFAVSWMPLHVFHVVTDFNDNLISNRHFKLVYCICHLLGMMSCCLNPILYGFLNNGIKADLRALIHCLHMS
Test: Rat NPY5 receptor binding assay ([125I]PYY, membrane protein)
Conditions: [125I]PYY binding, read-out: rNPY5 IC50
pIC50: −log10 of the molar value.
Record true whenever pIC50 is at 6 or higher; record false when lower.

>>> class("CN(C(=O)OC(C)(C)C)C1CCN(CC(=O)Nc2ccc(C3CCCCC3)cc2)C1 (stereo not drawn)")
"true"
>>> class("O=C(CNCc1ccco1)Nc1ccc(C2CCCCC2)cc1")
"true"
>>> class("O=C(CNCc1ccc(C(=O)O)cc1)Nc1ccc(C2CCCCC2)cc1")
"false"
>>> class("CNC1(C(N)=O)CCN(CC(=O)Nc2ccc(C3CCCCC3)cc2)CC1")
"true"
>>> class("CCNC1CCN(CC(=O)Nc2ccc(C3CCCCC3)cc2)C1 (stereo not drawn)")
"false"

Determine whether this molecule has pIC50 no lower than 6: CC(=O)OC1CC2CC1N(CC(=O)Nc1ccc(C3CCCCC3)cc1)C2 (stereo not drawn) true

Similarly, CC(=O)OC1CC2CC1N(CC(=O)Nc1ccc(C(=O)c3ccccc3)cc1)C2 (stereo not drawn) ? true
